All values here come from patent US9603364B2.

Test system: Zea mays L. (corn)
Assay: General post-emergent herbicidal activity, foliar application
Format: in vivo
Conditions: 336 h, 280 g ai/ha, scored after 14 days, read-out: % Visual Growth Reduction ZEAMX
READOUT_NAME: plant injury at 280 g/ha (%)
Your answer should be a plain number; it is taken to be in %.

Asked: Please give the measured plant injury at 280 g/ha for this molecule: Nc1cc(C(F)F)nc(C(=O)O)c1Cl
Given back: 60

Asked: Please give the measured plant injury at 280 g/ha for this molecule: COC(=O)c1nc(C(F)F)cc(N)c1Cl
Given back: 70

Asked: Please give the measured plant injury at 280 g/ha for this molecule: CC(F)c1nc(C(=O)O)c(Cl)c(N)c1Cl (centres unmarked)
Given back: 0

Asked: Please give the measured plant injury at 280 g/ha for this molecule: Nc1c(F)c(CF)nc(C(=O)O)c1Cl
Given back: 70

Asked: Please give the measured plant injury at 280 g/ha for this molecule: COC(=O)c1nc(C(F)CF)cc(N)c1Cl (centres unmarked)
Given back: 10

Asked: Please give the measured plant injury at 280 g/ha for this molecule: COC(=O)c1nc(CCl)cc(N)c1Cl
Given back: 0

Asked: Please give the measured plant injury at 280 g/ha for this molecule: COC(=O)c1nc(CCC(F)(F)F)c(Cl)c(N)c1Cl
Given back: 0

Asked: Please give the measured plant injury at 280 g/ha for this molecule: CC(F)c1nc(C(=O)O)c(Cl)c(N)c1F (centres unmarked)
Given back: 100

Asked: Please give the measured plant injury at 280 g/ha for this molecule: C=C(F)c1cc(N)c(Cl)c(C(=O)OC)n1
Given back: 0

Asked: Please give the measured plant injury at 280 g/ha for this molecule: COC(=O)c1nc(C(F)F)c(F)c(N)c1Cl
Given back: 10

Asked: Please give the measured plant injury at 280 g/ha for this molecule: C=C(F)c1nc(C(=O)OC)c(Cl)c(N)c1F
Given back: 0
